In this section we review reported z-score values for a set of compounds.
experimental_details: HepG2 liver cancer cell viability effects, profiling panel, resazurin fluorescence, 24 h, PK04 Diversity Set (AID 1172); also: test concentration not given here
cond: higher = more signal
result_type: z-score

| compound | test_value |
| --- | --- |
| C=CC[C@@H]1C=C[C@H](ON=C(C)CCN2CCCCc3nc(C)c(C)cc32)[C@@H](CO)O1 | 0.162 |
| COC(=O)[C@@H]1CC[C@H](C)[C@@H](c2ccc(Br)cc2)N1 | 0.138 |
| CC(CCN1CCCCc2nc(C)c(C)cc21)=NOC[C@@H](O)[C@H]1O[C@@H]2OC(C)(C)O[C@@H]2[C@H]1O | -0.825 |
| O=C1[C@H]2[C@H]3[C@H](O)[C@H](O)CC(=NOC[C@@H](O)COCc4ccco4)[C@@H]3CC[C@H]2C(=O)N1Cc1ccccc1 | 0.379 |
| CC(=O)OC[C@H]1O[C@H](CCON=C(C)C)C=C[C@@H]1OC(C)=O | -0.97 |
| O=C1C=C[C@@H](O)[C@@H]2[C@@H]3C(=O)N(c4cccc(Oc5ccccc5)c4)C(=O)[C@@H]3CC[C@@H]12 | -0.553 |
| CCN1C(=O)[C@H]2[C@@H]3C(=CC[C@H]2C1=O)C(=O)[C@H]1O[C@H]1[C@H]3O | -1.22 |
| CC(=O)OC[C@H]1O[C@H](CC=NOC[C@@H](O)[C@H]2O[C@@H]3OC(C)(C)O[C@@H]3[C@H]2O)C=C[C@@H]1OC(C)=O | 0.287 |
| CO[C@H]1COC(=O)CC=C[C@@H](C)COC(=O)[C@H]2CCCN2C(=O)CC=C[C@H]1C | -0.3 |
| C=CC[C@@H]1C=C[C@H](ON=CC[C@@H]2C=C[C@H](OC(C)=O)[C@@H](COC(C)=O)O2)[C@@H](CO)O1 | 0.083 |
| CCOC(=O)[C@H](Cc1ccccc1)NC(=O)CCC1CC(OC(=O)NCc2ccc3c(c2)OCO3)CC2(CCCC(COC(=O)NCCc3ccc(Cl)cc3)O2)O1 (stereo not given in full) | -0.202 |
| CCc1cc2c(nc1CC)CCN(CCC(C)=NOCC[C@@H]1C=C[C@H](OC(C)=O)[C@@H](COC(C)=O)O1)C2 | 0.0383 |
| COC(=O)[C@H](C)NC(=O)CCC1CC(OC(=O)NCCc2ccc(F)cc2)CC2(CCCC(COC(=O)NCCOc3ccccc3)O2)O1 (stereo not given in full) | 0.0903 |
| C[C@@H]1CC[C@H]2C(=O)O[C@@H](CN=[N+]=[N-])CN2[C@H]1c1ccc(Br)cc1 | -0.607 |
| CCOC(=O)CCN1C(=O)[C@H]2[C@H]3[C@H](O)[C@H](O)CC(=NO[C@@H]4O[C@H](CO)[C@@H](O)[C@H](O)[C@H]4O)[C@H]3CC[C@H]2C1=O | -0.228 |

* * *

experimental_details: CREB reporter modulators under forskolin, primary screen, cell-based, PC12, CRE-LacZ reporter, forskolin-stimulated (AID 1146);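 also: PC12 cells with 6xCRE LacZ reporter stimulated by forskolin 10 µM; beta-galactosidase reporter signal reflecting CREB driven transcription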
cond: luminescence, 4.5 h, higher = more signal, called active from +8 up or from −8 down
Consider the reported z-score of an entry and match it to a band in low range: < 0.05; mid range: ≥ 0.05 and < 0.4; high range: ≥ 0.4

| compound | class_name |
| --- | --- |
| CON=C(C)CCC(=O)OC[C@H]1O[C@H](C#Cc2ccccc2)C=C[C@@H]1Oc1ccc(C)cc1 | high range |
| CC(C)=NO[C@H](C)c1cn([C@@H]2COC[C@H]2O)nn1 | low range |
| COC(=O)CC=C[C@@H](C)[C@@H](C=NOC[C@@H](O)COCc1ccco1)OC | low range |
| COc1ccc(COC(=O)NN=C2C[C@@H](O)[C@@H](O)[C@@H]3[C@@H]4C(=O)N([C@@H](C)c5ccccc5)C(=O)[C@@H]4CC[C@@H]23)cc1 | mid range |
| CON=C1c2cc(OC)ccc2O[C@H](c2cccc(OC)c2)[C@H]1O | low range |
| COc1ccc(O[C@H]2C=C[C@@H](c3ccccc3)O[C@@H]2COC(=O)NCc2cccc3ccccc23)cc1 | high range |
| CCN1C(=O)[C@H]2[C@H]3[C@H](O)[C@H](O)CC(=NO[C@@H](C)c4cc(-c5c(C)cc(C)cc5C)no4)[C@@H]3CC[C@H]2C1=O | mid range |
| COc1ccc(COC(=O)NN=C2C[C@@H](O)[C@@H](O)[C@@H]3[C@@H]4C(=O)N(Cc5ccccc5)C(=O)[C@@H]4CC[C@@H]23)cc1 | high range |
| COC(=O)CC=C1c2ccccc2[C@H](OC)[C@H]1C | mid range |
| CCCCOC(OCCCC)C(O)CSc1ccc2ccccc2c1 (stereo not drawn) | mid range |
| O=C1[C@H]2CCn3c(=O)n(Cc4cc5c(cc4Cl)OCO5)c(=O)n3[C@H]2[C@H](O)[C@@H]2O[C@H]12 | low range |
| CC1(C)O[C@H]2O[C@H]([C@H](O)CON=C3[C@H]4CCn5c(=O)n(-c6ccccc6)c(=O)n5[C@H]4[C@H](O)[C@@H]4O[C@H]34)[C@H](O)[C@H]2O1 | high range |
| COC(=O)CC=C[C@@H](C)[C@@H](C=NOC(C)CN1CCCc2nc(C)c(C)cc21)NS(=O)(=O)c1ccc(C)cc1 (stereo partly drawn) | high range |

* * *

tested_on: Focal adhesion kinase 1 (Homo sapiens) (UniProt Q05397)
Sequence (Q05397 whole entry, looked up): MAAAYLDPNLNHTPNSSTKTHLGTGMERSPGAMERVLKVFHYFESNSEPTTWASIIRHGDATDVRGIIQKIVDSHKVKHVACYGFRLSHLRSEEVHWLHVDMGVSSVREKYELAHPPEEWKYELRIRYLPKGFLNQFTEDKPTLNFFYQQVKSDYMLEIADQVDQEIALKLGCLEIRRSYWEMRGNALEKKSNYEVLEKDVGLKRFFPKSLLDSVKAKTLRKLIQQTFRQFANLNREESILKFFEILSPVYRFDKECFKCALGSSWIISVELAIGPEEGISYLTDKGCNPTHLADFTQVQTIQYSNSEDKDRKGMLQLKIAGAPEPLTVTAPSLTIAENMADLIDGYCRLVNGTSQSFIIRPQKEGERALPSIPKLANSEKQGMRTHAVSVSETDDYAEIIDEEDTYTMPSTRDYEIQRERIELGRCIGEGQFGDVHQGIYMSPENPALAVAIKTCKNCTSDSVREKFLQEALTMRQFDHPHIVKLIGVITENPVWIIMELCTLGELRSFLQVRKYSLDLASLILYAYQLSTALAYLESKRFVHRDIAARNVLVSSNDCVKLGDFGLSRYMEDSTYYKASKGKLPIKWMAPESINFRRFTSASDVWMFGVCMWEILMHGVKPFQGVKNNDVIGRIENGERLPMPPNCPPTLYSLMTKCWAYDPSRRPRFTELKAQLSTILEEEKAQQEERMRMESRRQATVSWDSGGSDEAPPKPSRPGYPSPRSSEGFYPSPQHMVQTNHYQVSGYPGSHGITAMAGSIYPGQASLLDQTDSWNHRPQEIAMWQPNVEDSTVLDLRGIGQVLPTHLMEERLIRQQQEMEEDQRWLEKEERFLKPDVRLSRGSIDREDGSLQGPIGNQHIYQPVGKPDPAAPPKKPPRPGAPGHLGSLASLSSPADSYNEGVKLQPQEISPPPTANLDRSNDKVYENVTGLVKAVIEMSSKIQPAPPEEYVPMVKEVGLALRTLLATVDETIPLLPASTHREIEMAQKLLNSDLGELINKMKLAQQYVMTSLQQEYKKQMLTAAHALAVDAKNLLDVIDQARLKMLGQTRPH
experimental_details: small-molecule microarray binders of FAK, primary screen, biochemical, 635/667 nm fluorescence, BSA, DTT (AID 1130);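 also: composite of spot emission at 667 nm and signal to noise over triplicate slides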
cond: PTK2 binding, 635 nm fluorescence, higher = more signal
# cutoff 0.1 applies to composite z-score; >= gives Y, < gives N

| compound | tested_on | class_name |
| --- | --- | --- |
| CC(=O)OC[C@H]1O[C@H](CC=NOC[C@@H](O)[C@H]2O[C@@H]3OC(C)(C)O[C@@H]3[C@H]2O)C=C[C@@H]1OC(C)=O | Focal adhesion kinase 1 (Homo sapiens) (UniProt Q05397) | Y |
| Cc1ccc(S(=O)(=O)N[C@@H]2COC(=O)CC=C[C@@H](C)[C@H](NS(=O)(=O)c3ccc(C)cc3)COC(=O)[C@H](C)NC(=O)CC=C[C@H]2C)cc1 | Focal adhesion kinase 1 (Homo sapiens) (UniProt Q05397) | N |
| CCOC(=O)[C@H](Cc1ccccc1)NC(=O)CCC1CC(OC(=O)NCc2cccc3ccccc23)CC2(CCCC(COC(=O)NCC3CCCCC3)O2)O1 (some centres not stated) | Focal adhesion kinase 1 (Homo sapiens) (UniProt Q05397) | Y |
| CC(C)=CCCC(C)=CCON=C1C[C@@H](O)[C@@H](O)[C@@H]2[C@@H]3C(=O)N(Cc4ccc5c(c4)OCO5)C(=O)[C@@H]3CC[C@@H]12 | Focal adhesion kinase 1 (Homo sapiens) (UniProt Q05397) | Y |
| CO[C@H]1COC(=O)[C@H](CCSC)NC(=O)CC=C[C@@H](C)[C@H](OC)COC(=O)[C@@H](OCc2ccccc2)C=C[C@@H]1C | Focal adhesion kinase 1 (Homo sapiens) (UniProt Q05397) | N |
| CN1CCc2nc(-c3ccccc3)c(-c3ccccc3)cc2C1 | Focal adhesion kinase 1 (Homo sapiens) (UniProt Q05397) | Y |
| CC(C)[C@@H](OCc1ccccc1)[C@H](C)C=NO[C@H](C)c1cn([C@@H]2COC[C@H]2O)nn1 | Focal adhesion kinase 1 (Homo sapiens) (UniProt Q05397) | Y |

* * *

In this section we review reported composite z-score values for a set of molecules.
tested_on: Focal adhesion kinase 1 (Homo sapiens)
experimental_details: small-molecule microarray binders of FAK, primary screen, biochemical, 635/667 nm fluorescence, BSA, DTT (AID 1130);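 also: composite of spot emission at 667 nm and signal to noise over triplicate slides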
cond: PTK2 binding, 635 nm fluorescence, higher = more signal
result_type: composite z-score

| molecule | test_value |
| --- | --- |
| COC(=O)[C@H](C)NC(=O)CCC1CC(OC(=O)NCc2cccc3ccccc23)CC2(CCCC(COC(=O)NCCOc3ccccc3)O2)O1 (some centres not stated) | 0.549 |
| CCCNC(=O)OC[C@H]1O[C@H](CCON=C[C@@H](NS(=O)(=O)c2ccc(C)cc2)[C@H](C)C=CCC(=O)OC)C=C[C@@H]1Oc1ccc(OC)cc1 | 0.459 |
| COC(=O)[C@H](C)NC(=O)CCC1CC(OC(=O)NCc2ccc3c(c2)OCO3)CC2(CCCC(COC(=O)NCCCN3CCCC3=O)O2)O1 (some centres not stated) | 0.174 |
| CC[C@@H](c1ccccc1)n1c(=O)n2n(c1=O)[C@H]1[C@H](O)[C@@H]3O[C@@H]3C(=NOCc3ccccc3)[C@H]1CC2 | -0.207 |
| COC(=O)CC=C[C@@H](C)[C@@H](C=NOC[C@@H](C)[C@H](OCc1ccccc1)C(C)C)NS(=O)(=O)c1ccc(C)cc1 | -0.424 |
| C[C@@H](c1ccccc1)N1C(=O)[C@H]2[C@H]3[C@H](O)[C@H](O)CC(=NNC(=O)OCc4ccccc4)[C@@H]3CC[C@H]2C1=O | 0.37 |
| CCOC(=O)[C@H](CC(C)C)NC(=O)CCC1CC(OC(=O)NCc2ccc3c(c2)OCO3)CC2(CCCC(COC(=O)NCCc3ccccc3OC)O2)O1 (some centres not stated) | 0.283 |
